- target-system: human opioid receptor δ (Homo sapiens)
- assay-comment: Opioid receptor function test (Lance Ultra cAMP Kit), δ receptor
- stated-conditions: agonistic activity, human δ receptor-expressing CHO cells, cAMP, forskolin
pEC50: −log10 of the molar value.
quantity-measured: pEC50

Some compounds with known pEC50 results, for comparison:
- compound: "C[C@H](N)CN1CCC23c4cc(O)ccc4CC1C21CCC2C3[C@@H](CN2C(=O)c2ccccc2)C1 (stereo partly shown)"
  target-system: "human opioid receptor δ (Homo sapiens)"
  quantity-measured: "pEC50"
  value-measured: "> 8.00"
- compound: "NCC(O)CN1CC[C@@]23c4cc(O)ccc4C[C@@H]1[C@]21CC[C@@H]2[C@H]3[C@@H](CN2C(=O)c2ccccc2)C1 (single isomer, unassigned) [Compound 62a]"
  target-system: "human opioid receptor δ (Homo sapiens)"
  quantity-measured: "pEC50"
  value-measured: "> 9.00"
- compound: "N[C@@H](CO)CN1CC[C@@]23c4cc(O)ccc4C[C@@H]1[C@]21CC[C@@H]2[C@H]3[C@@H](CN2C(=O)c2ccccc2)C1"
  target-system: "human opioid receptor δ (Homo sapiens)"
  quantity-measured: "pEC50"
  value-measured: "> 9.00"

Now consider a different compound.
stdin: # pEC50 lookup, item `NCCN1CC[C@@]23c4cc(O)ccc4C[C@@H]1[C@]21CC[C@@H]2[C@H]3[C@@H](CN2C(=O)c2ccccc2)C1`
stdout: > 8.00

* * *

- target-system: human opioid receptor κ (Homo sapiens, UniProt P41145)
- Construct: host or cells: CHO cells
- Sequence (P41145 whole entry): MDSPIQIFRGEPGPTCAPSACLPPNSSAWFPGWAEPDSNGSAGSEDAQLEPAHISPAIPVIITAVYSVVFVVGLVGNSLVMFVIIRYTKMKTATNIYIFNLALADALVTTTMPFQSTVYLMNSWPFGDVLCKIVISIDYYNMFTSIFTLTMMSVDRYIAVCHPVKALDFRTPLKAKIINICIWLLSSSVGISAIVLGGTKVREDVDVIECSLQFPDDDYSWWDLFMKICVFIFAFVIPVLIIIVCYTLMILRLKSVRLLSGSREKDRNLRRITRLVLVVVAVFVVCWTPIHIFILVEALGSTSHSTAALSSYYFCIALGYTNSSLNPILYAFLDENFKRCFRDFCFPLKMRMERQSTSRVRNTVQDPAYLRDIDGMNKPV
- assay-comment: Opioid receptor function test (Lance Ultra cAMP Kit), κ receptor
- Format: cell-based
- stated-conditions: maximum reaction relative to U-69593 taken as 100%
quantity-measured: Emax
// return the numeric value with its unit appended

Sample records with Emax:
- compound: "CN1CCC[C@H]1CN1CCC23c4cc(O)ccc4CC1C21CCC2C3[C@@H](CN2C(=O)c2ccccc2)C1 (some centres unmarked)"
  Emax: "17%"
- compound: "CN(C)CCN1CCC23c4cc(O)ccc4CC1C21CCC2C3[C@@H](CN2C(=O)c2ccccc2)C1 (some centres unmarked)"
  Emax: "22%"
- compound: "O=C(c1ccccc1)N1C[C@H]2CC34CCC1C2C31CCN(CC2CNC2)C4Cc2ccc(O)cc21 (some centres unmarked)"
  Emax: "28%"
- compound: "Cc1cc(C)nc(N2C[C@H]3C[C@@]45CC[C@@H]2[C@@H]3[C@@]42CCN(CCN(C)C)[C@@H]5Cc3ccc(O)cc32)n1"
  Emax: "46%"

Switching to the query record.
stdin: Name the recorded Emax for `NCCN1CC[C@@]23c4cc(O)ccc4C[C@@H]1[C@]21CC[C@@H]2[C@H]3[C@@H](CN2C(=O)c2ccccc2)C1` .
stdout: 12%

* * *

- target-system: human opioid receptor δ (Homo sapiens, UniProt P41143)
- Construct: host or cells: CHO cells
- Sequence (P41143 whole entry): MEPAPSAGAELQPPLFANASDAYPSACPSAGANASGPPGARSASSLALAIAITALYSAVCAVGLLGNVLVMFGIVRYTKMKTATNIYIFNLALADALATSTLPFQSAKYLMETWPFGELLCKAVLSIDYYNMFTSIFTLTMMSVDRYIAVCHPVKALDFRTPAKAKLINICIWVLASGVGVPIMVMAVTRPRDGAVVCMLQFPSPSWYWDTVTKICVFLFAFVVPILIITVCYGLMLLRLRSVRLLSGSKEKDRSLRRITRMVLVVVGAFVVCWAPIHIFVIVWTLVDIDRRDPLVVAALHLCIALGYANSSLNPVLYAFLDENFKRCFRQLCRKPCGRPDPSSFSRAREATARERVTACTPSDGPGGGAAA
- assay-comment: Opioid receptor function test (Lance Ultra cAMP Kit), δ receptor
- Format: cell-based
- stated-conditions: maximum reaction relative to SNC 80 taken as 100%
Emax by entry:
Provide only the numeric value, understood in %.

Answered cases to consult:
- compound: "Cc1cc(C)nc(N2C[C@H]3C[C@@]45CC[C@@H]2[C@@H]3[C@@]42CCN(CCN(C)C)[C@@H]5Cc3ccc(O)cc32)n1"
  unit-spec: "%"
  Emax: 101
- compound: "NCCCN1CCC23c4cc(O)ccc4CC1C21CCC2C3[C@@H](CN2C(=O)c2cccc3ccccc23)C1 (stereo partly drawn)"
  unit-spec: "%"
  Emax: 102
- compound: "O=C(c1ccccc1)N1C[C@H]2C[C@@]34CC[C@@H]1[C@@H]2[C@@]31CCN(C[C@@H]2CCCN2)[C@@H]4Cc2ccc(O)cc21"
  unit-spec: "%"
  Emax: 106
- compound: "O=C(c1ccccc1)N1C[C@H]2CC34CCC1C2C31CCN(CC2CNC2)C4Cc2ccc(O)cc21 (stereo partly drawn)"
  unit-spec: "%"
  Emax: 108
- compound: "NCC(O)CN1CC[C@@]23c4cc(O)ccc4C[C@@H]1[C@]21CC[C@@H]2[C@H]3[C@@H](CN2C(=O)c2ccccc2)C1 (single isomer, unassigned) [Compound 62a]"
  unit-spec: "%"
  Emax: 108

stdin: Dear colleague, I am looking for the recorded Emax of the following compound: C[C@H](N)CN1CCC23c4cc(O)ccc4CC1C21CCC2C3[C@@H](CN2C(=O)c2ccccc2)C1 (stereo partly drawn)
stdout: 109

* * *

- target-system: δ opioid receptor (Mus musculus, UniProt P32300)
- Construct: In the assays for the μ and δ receptors, the mouse cerebrum membrane fraction was used; from tissue; host or cells: mouse cerebrum membrane fraction
- Sequence (P32300 whole entry): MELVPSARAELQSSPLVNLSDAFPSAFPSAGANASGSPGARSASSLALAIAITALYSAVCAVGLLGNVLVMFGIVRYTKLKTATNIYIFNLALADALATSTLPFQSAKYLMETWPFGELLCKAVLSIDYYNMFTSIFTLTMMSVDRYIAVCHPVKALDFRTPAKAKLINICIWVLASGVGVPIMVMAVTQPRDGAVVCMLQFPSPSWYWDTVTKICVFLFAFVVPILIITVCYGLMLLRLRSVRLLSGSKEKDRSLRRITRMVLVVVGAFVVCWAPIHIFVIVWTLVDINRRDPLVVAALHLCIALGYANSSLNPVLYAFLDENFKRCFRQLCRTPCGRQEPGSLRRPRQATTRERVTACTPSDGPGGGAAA
- assay-comment: Opioid receptor binding test, [3H]DPDPE, mouse cerebrum membrane fraction
- stated-conditions: read-out: Binding affinity (Ki, nM) δ
Each record here notes measured Ki.

stdin: Find Ki (δ opioid receptor (Mus musculus, UniProt P32300)) for the entry O=C(c1ccccc1)N1C[C@H]2CC34CCC1C2C31CCN(C[C@@H]2CCCCN2)C4Cc2ccc(O)cc21 (stereo partly drawn)
stdout: < 10 nM

stdin: Next: `NCCN1CC[C@@]23c4cc(O)ccc4C[C@@H]1[C@]21CC[C@@H]2[C@H]3[C@@H](CN2C(=O)c2ccccc2)C1`
stdout: < 10 nM

stdin: What do we get for C[C@H](N)CN1CCC23c4cc(O)ccc4CC1C21CCC2C3[C@@H](CN2C(=O)c2ccccc2)C1 (stereo partly drawn) ?
stdout: < 1 nM

* * *

Parameter pEC50: see the listing below.
- target-system: human opioid receptor μ (Homo sapiens)
- Sequence (P35372 whole entry): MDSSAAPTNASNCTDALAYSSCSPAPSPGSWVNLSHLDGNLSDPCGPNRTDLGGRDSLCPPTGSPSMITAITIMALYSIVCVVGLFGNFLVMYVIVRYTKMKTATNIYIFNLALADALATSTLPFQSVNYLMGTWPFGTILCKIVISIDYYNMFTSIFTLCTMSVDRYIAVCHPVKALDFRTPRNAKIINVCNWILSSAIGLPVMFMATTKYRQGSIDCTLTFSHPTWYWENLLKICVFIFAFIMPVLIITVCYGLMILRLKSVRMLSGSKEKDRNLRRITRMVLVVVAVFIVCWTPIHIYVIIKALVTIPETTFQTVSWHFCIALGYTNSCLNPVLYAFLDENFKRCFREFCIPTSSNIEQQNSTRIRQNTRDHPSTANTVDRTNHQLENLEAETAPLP
- assay-comment: Opioid receptor function test (Lance Ultra cAMP Kit), μ receptor
- stated-conditions: agonistic activity, human μ receptor-expressing CHO cells, cAMP, forskolin
pEC50: −log10 of the molar value.

Guide cases for pEC50, answers given:
- molecule: "CN(C)CCN1CCC23c4cc(O)ccc4CC1C21CCC2C3[C@@H](CN2C(=O)c2ccccc2)C1 (stereo partly drawn)"
  pEC50: "< 8.00"
- molecule: "O=C(c1ccccc1)N1C[C@H]2CC34CCC1C2C31CCN(CC2CNC2)C4Cc2ccc(O)cc21 (stereo partly drawn)"
  pEC50: "< 7.00"
- molecule: "O=C(c1ccccc1)N1C[C@H]2C[C@@]34CC[C@@H]1[C@@H]2[C@@]31CCN(C[C@@H]2CCCN2)[C@@H]4Cc2ccc(O)cc21"
  pEC50: "< 7.00"
- molecule: "Cc1cc(C)nc(N2C[C@H]3C[C@@]45CC[C@@H]2[C@@H]3[C@@]42CCN(CCN(C)C)[C@@H]5Cc3ccc(O)cc32)n1"
  pEC50: "< 8.00"
- molecule: "NCCCN1CCC23c4cc(O)ccc4CC1C21CCC2C3[C@@H](CN2C(=O)c2ccccc2)C1 (stereo partly drawn)"
  pEC50: "< 7.00"

stdin: Look at this molecule and give its reported pEC50. NCC(O)CN1CC[C@@]23c4cc(O)ccc4C[C@@H]1[C@]21CC[C@@H]2[C@H]3[C@@H](CN2C(=O)c2ccccc2)C1 (single isomer, unassigned) [Compound 62a]
stdout: < 7.00
